- TARGET_OR_TEST_SYSTEM: UniProt:P29597
- MEASUREMENT_NOTES: TYK2 degradation MSD assay in OCI-LY10 cells
- Assay type: cell-based
- Design: endogenous in cells; host or cells: EBV-B cells
- EXPERIMENTAL_CONDITIONS: 4 to 24 hours incubation, read-out: TYK2 MSD DC50 rating in OCI-LY10
MEASUREMENT_NAME: DC50

Some solved cases for reference:
{"COMPOUND": "CNc1cc(Nc2cccc(-c3ccc(CN4CCN([C@H]5CC[C@@H](c6ccc7c(c6)n(C)c(=O)n7C6CCC(=O)NC6=O)CC5)CC4)cn3)c2OC)nn2c(C(=O)N[C@@H]3C[C@@H]3F)cnc12 (mixture of isomers)", "RECORDED_VALUE": "< 1 nM"}
{"COMPOUND": "CNc1cc(Nc2cccn(-c3ccc(C(=O)NCCCCc4ccc5c(c4)n(C)c(=O)n5C4CCC(=O)NC4=O)cn3)c2=O)nn2c(C(=O)NC3CCC3)cnc12 (centres unmarked)", "RECORDED_VALUE": "> 100 nM"}
{"COMPOUND": "CNc1cc(-c2cnn(C3CCC(CN4CC5(CCN(c6ccc7c(c6)n(C)c(=O)n7C6CCC(=O)NC6=O)CC5)C4)CC3)c2)nn2c(C(=O)N[C@@H]3C[C@@H]3F)cnc12 (some centres unmarked)", "RECORDED_VALUE": "> 100 nM"}
{"COMPOUND": "CNc1cc(Nc2cccc(-c3ccc(CN4CCN(c5ccc(-c6ccc7c(c6)n(C)c(=O)n7C6CCC(=O)NC6=O)cc5)CC4)cn3)c2OC)nn2c(C(=O)NC(C)C)cnc12 (centres unmarked)", "RECORDED_VALUE": "1 to 10 nM"}
{"COMPOUND": "CNc1cc(Nc2cccc(-c3ccc(CN4CCN(c5ccc(-c6cccc7c6n(C)c(=O)n7C6CCC(=O)NC6=O)cc5)CC4)cn3)c2)nn2c(C(=O)N[C@@H]3C[C@@H]3F)cnc12 (some centres unmarked)", "RECORDED_VALUE": "1 to 10 nM"}

DC50 reported for this compound CNc1cc(Nc2cccn(-c3ccc(C(=O)N4CC5(CN(CCC#Cc6ccc7c(c6)n(C)c(=O)n7C6CCC(=O)NC6=O)CCO5)C4)cn3)c2=O)nn2c(C(=O)N[C@@H]3C[C@@H]3F)cnc12 (some centres unmarked) : < 1 nM

CNc1cc(Nc2cccn(-c3ccc(C(=O)N4CCC(CN(C)c5ccc6c(c5)n(C)c(=O)n6C5CCC(=O)NC5=O)CC4)cn3)c2=O)nn2c(C(=O)N[C@@H]3C[C@@H]3F)cnc12 (some centres unmarked) yielded DC50 of > 100 nM

Sample CNc1cc(Nc2cccn(-c3cccc(C(=O)NCCCCc4cccc5c4n(C)c(=O)n5C4CCC(=O)NC4=O)c3)c2=O)nn2c(C(=O)N[C@@H]3C[C@@H]3F)cnc12 (some centres unmarked) ; DC50 observed: > 100 nM

Value of DC50 reported for the compound CNC(=O)c1cnc(Nc2ccc(C(=O)NCCCCc3cccc4c3n(C)c(=O)n4C3CCC(=O)NC3=O)cn2)cc1Nc1cccc(-c2ncc(F)cn2)c1OC (centres unmarked) is < 1 nM

Summary for this compound, CNc1cc(-c2cnn(C3CCC(CN(C)C4CCN(c5ccc6c(c5)n(C)c(=O)n6C5CCC(=O)NC5=O)CC4)CC3)c2)nn2c(C(=O)N[C@@H]3C[C@@H]3F)cnc12 (some centres unmarked) : DC50 is > 100 nM

====

Entries annotated with measured DC50
- TARGET_OR_TEST_SYSTEM: TYK2 (Homo sapiens, UniProt P29597)
- Sequence (P29597 whole entry): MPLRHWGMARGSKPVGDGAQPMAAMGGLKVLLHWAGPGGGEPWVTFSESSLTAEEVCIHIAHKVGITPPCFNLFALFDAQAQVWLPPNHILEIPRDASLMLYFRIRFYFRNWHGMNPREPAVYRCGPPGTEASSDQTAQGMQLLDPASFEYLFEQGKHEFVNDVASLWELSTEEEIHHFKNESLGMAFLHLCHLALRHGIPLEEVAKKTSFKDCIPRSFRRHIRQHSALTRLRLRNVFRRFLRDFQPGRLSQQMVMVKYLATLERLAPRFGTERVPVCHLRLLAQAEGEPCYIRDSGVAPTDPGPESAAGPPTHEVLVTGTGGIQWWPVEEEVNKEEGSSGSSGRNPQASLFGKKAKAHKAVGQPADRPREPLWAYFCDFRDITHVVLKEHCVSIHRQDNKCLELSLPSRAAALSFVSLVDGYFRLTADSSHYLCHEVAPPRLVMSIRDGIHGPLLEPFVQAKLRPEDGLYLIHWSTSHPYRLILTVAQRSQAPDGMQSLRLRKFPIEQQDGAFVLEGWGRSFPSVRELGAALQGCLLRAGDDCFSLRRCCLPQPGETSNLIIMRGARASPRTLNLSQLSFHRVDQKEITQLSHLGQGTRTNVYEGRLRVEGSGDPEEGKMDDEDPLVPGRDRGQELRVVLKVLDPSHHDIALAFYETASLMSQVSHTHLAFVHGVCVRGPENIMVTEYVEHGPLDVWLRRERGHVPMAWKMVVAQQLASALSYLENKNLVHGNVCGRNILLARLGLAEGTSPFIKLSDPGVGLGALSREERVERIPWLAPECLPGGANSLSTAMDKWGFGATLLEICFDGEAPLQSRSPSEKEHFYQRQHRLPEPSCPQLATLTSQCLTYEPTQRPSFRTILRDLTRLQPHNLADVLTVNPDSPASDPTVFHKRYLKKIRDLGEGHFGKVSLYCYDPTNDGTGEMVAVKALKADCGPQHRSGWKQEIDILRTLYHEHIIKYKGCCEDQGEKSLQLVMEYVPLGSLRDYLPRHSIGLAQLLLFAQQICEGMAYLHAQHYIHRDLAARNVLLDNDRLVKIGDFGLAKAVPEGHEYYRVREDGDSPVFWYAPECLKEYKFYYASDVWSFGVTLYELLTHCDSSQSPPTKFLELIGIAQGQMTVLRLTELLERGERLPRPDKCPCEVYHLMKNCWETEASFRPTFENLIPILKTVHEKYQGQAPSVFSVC
- MEASUREMENT_NOTES: TYK2 degradation MSD assay in human PBMC cells
- Assay type: cell-based
- Parameters: endogenous in cells; host or cells: human PBMC
- EXPERIMENTAL_CONDITIONS: 4 to 24 hours incubation, read-out: TYK2 MSD DC50 rating in human PBMC

Example molecules with recorded DC50:
{"MOLECULE": "CNC(=O)c1cnc(Nc2ccc(CN3CCC(N(C)c4ccc5c(c4)n(C)c(=O)n5C4CCC(=O)NC4=O)CC3)cn2)cc1Nc1cccc(-c2ncc(F)cn2)c1OC (centres unmarked) [Example K175]", "RECORDED_VALUE": "< 1 nM"}
{"MOLECULE": "CNc1cc(Nc2cccn(-c3ccc(C(=O)N(C)Cc4ccc(-c5ccc6c(c5)n(C)c(=O)n6C5CCC(=O)NC5=O)cn4)cn3)c2=O)nn2c(C(=O)N[C@@H]3C[C@@H]3F)cnc12 (some centres unmarked) [Example K387]", "RECORDED_VALUE": "< 1 nM"}
{"MOLECULE": "CNc1cc(-c2cccc(C(=O)NCCCCc3cccc4c3n(C)c(=O)n4C3CCC(=O)NC3=O)c2)nn2c(C(=O)N[C@@H]3C[C@@H]3F)cnc12 (some centres unmarked) [Example K305]", "RECORDED_VALUE": "> 100 nM"}
{"MOLECULE": "CNc1cc(Nc2cccn(-c3ccc(C(=O)N4CCC(CC#Cc5cccc6c5n(C)c(=O)n6C5CCC(=O)NC5=O)CC4)cn3)c2=O)nn2c(C(=O)N[C@@H]3C[C@@H]3F)cnc12 (some centres unmarked) [Example K331]", "RECORDED_VALUE": "< 1 nM"}

Field DC50 (entry CCc1nn(-c2cccc(F)c2OC)c2cc(Nc3ccc(CN(C)C4CCN(c5cccc6c5n(C)c(=O)n6C5CCC(=O)NC5=O)CC4)cn3)ncc12 (centres unmarked) [Example K537] ) reads > 100 nM

====

Parameter DC50: see the listing below.
- TARGET_OR_TEST_SYSTEM: UniProtKB P29597
- MEASUREMENT_NOTES: TYK2 degradation MSD assay in human PBMC cells
- Assay type: cell-based
- Parameters: endogenous in cells; host or cells: human PBMC
- EXPERIMENTAL_CONDITIONS: 4 to 24 hours incubation, read-out: TYK2 MSD DC50 rating in human PBMC

Item CNC(=O)c1cnc(Nc2ccc(C3CN(Cc4cccc5c4n(C)c(=O)n5C4CCC(=O)NC4=O)C3)cn2)cc1Nc1cccc(-c2ncc(F)cn2)c1OC (centres unmarked) ; assay system UniProtKB P29597; DC50 reported as > 100 nM

I looked up CNc1cc(Nc2cccn(-c3ccc(C(=O)N4CCN(C(=O)C5CC(N6CCC(OCCCc7ccc8c(c7)n(C)c(=O)n8C7CCC(=O)NC7=O)CC6)C5)CC4)cn3)c2=O)nn2c(C(=O)N[C@@H]3C[C@@H]3F)cnc12 (some centres unmarked) and its DC50 for UniProtKB P29597 was > 100 nM

Test item CNc1cc(Nc2cccc(-c3ccc(CN4CCC(N5CC(N6CCN(c7ccc8c(c7)n(C)c(=O)n8C7CCC(=O)NC7=O)CC6)C5)CC4)cn3)c2OC)nn2c(C(=O)N[C@@H]3C[C@@H]3F)cnc12 (some centres unmarked) ; UniProtKB P29597; reported DC50 was > 100 nM

Entry `CNc1cc(N2CCc3c(-c4ccc(CN5CC6(CCN(C(=O)c7ccc(Cl)c(N8CCC(=O)NC8=O)c7)CC6)C5)cn4)cccc32)nn2c(C(=O)N[C@@H]3C[C@@H]3F)cnc12` , UniProtKB P29597 data, DC50 value: > 100 nM

Item: CNc1cc(Nc2cccn(-c3ccc(C(=O)NCCCCCCCc4cccc5c4n(C)c(=O)n5C4CCC(=O)NC4=O)cn3)c2=O)nn2c(C(=O)N[C@@H]3C[C@@H]3F)cnc12 (some centres unmarked) | System: UniProtKB P29597 | DC50: < 1 nM

====

- TARGET_OR_TEST_SYSTEM: TYK2 (Homo sapiens, UniProt P29597)
- MEASUREMENT_NOTES: TYK2 degradation MSD assay in human PBMC cells
- Type: cell-based
- Design: endogenous in cells; host or cells: human PBMC
- EXPERIMENTAL_CONDITIONS: 4 to 24 hours incubation, read-out: TYK2 MSD DC50 rating in human PBMC
DC50 values for the compounds below.

Example entries and their recorded answers appear below.
{"COMPOUND": "CNc1cc(Nc2cccn(-c3ccc(C(=O)N4CC5(C4)CN(c4ncc(C#Cc6ccc7c(c6)n(C)c(=O)n7C6CCC(=O)NC6=O)cn4)C5)cn3)c2=O)nn2c(C(=O)NC3CC3F)cnc12 (centres unmarked)", "DC50": "> 100 nM"}
{"COMPOUND": "CNc1cc(Nc2cccn(-c3cc(C(=O)NCCOCCOCCOCCOCCOCCOCCc4ccc5c(c4)n(C)c(=O)n5C4CCC(=O)NC4=O)ccn3)c2=O)nn2c(C(=O)N[C@@H]3C[C@@H]3F)cnc12 (some centres unmarked)", "DC50": "> 100 nM"}
{"COMPOUND": "CNc1cc(N2CCN(c3ccc(CN4CCN(c5ccc(-c6ccc7c(c6)n(C)c(=O)n7C6CCC(=O)NC6=O)cc5)CC4)cc3)CC2)nn2c(C(=O)N[C@@H]3C[C@@H]3F)cnc12 (some centres unmarked)", "DC50": "> 100 nM"}
{"COMPOUND": "O=C1CCN(c2cnc3cc(CCOCCOCCOCCOCCNc4cc(Nc5cccn(-c6ccccn6)c5=O)nn5c(C(=O)N[C@@H]6C[C@@H]6F)cnc45)ccn23)C(=O)N1", "DC50": "10 to 100 nM"}

Turning to the following compound.
Given item CNC(=O)c1cnc(Nc2ccc(CN(C)C3CCN(Cc4cccc5c4n(C)c(=O)n5C4CCC(=O)NC4=O)CC3)cn2)cc1Nc1cccc(-c2ncc(F)cn2)c1OC (centres unmarked) , the value recorded as its DC50 is < 1 nM
